Study system: human MGL from HeLa cells (Homo sapiens, UniProt Q99685)
Construct: combining endogenously expressed MGL from HeLa cells with test compounds; endogenous in cells; host or cells: HeLa cells / cell homogenates
Sequence (Q99685 1-303): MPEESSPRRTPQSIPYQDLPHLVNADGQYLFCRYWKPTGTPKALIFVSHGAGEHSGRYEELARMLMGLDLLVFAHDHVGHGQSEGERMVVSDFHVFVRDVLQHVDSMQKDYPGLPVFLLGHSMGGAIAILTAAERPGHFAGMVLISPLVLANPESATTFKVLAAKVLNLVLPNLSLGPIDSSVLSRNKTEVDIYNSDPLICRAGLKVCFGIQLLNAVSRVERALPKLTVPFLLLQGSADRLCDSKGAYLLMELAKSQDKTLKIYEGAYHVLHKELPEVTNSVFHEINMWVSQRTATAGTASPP
Test name: In vitro MGL activity assay: [glycerol-1,3-3H]-oleyl glycerol cleavage by MGL from HeLa cells
Assay type: biochemical
Condition parameters: 300 nM [Glycerol-1,3-3H]-oleyl glycerol, one hour
pIC50: −log10 of the molar value.
Readout label: pIC50

>>> print(df.to_string())
                                   compound  readout_label  recorded_measurement
0  C[C@H]1c2nn(C)c(-c3cc(F)c(F)c(F)c3)c2CCN1C(=O)c1c(C(F)(F)F)nc2ccccn12 [Example 413]          pIC50                  7.64
1  C[C@H]1c2nn(C)c(-c3cccc4scnc34)c2CCN1C(=O)c1ccc2ncccc2c1 [Example 537]          pIC50                  7.48
2  COc1ccc(F)cc1-c1c2c(nn1C)[C@H](C)N(C(=O)c1ccc3ncccc3c1)CC2 [Example 508]          pIC50                  7.15
3  C[C@H]1c2nn(C)c(-c3cc(F)c(F)c(F)c3)c2CCN1C(=O)c1cccc2c1OC1(CC1)CN2 [Example 604]          pIC50                  6.99
4  C[C@H]1c2nn(C)c(-c3ccccc3C(F)(F)F)c2CCN1C(=O)c1ccc2ncccc2c1 [Example 493]          pIC50                  5.63
5  Cc1cc2nccnc2cc1C(=O)N1CCc2c(nn(C)c2-c2cc(F)c(F)c(F)c2)[C@@H]1C [Example 473]          pIC50                  7.51
6  C[C@H]1c2nn(C)c(-c3cc(F)c(F)c(F)c3)c2CCN1C(=O)c1cnc2[nH]ncc2c1 [Example 423]          pIC50                  7.39

* * *

Study system: human MGL from HeLa cells (Homo sapiens, UniProt Q99685)
Construct: combining endogenously expressed MGL from HeLa cells with test compounds; endogenous in cells; host or cells: HeLa cells / cell homogenates
Test name: In vitro MGL activity assay: [glycerol-1,3-3H]-oleyl glycerol cleavage by MGL from HeLa cells
Assay type: biochemical
Condition parameters: 300 nM [Glycerol-1,3-3H]-oleyl glycerol, one hour incubation
From the text: MGL is the predominant hydrolase in HeLa cells/cell homogenates.
For each record, check the reported IC50: if it is below 200 nM write Yes, else write No.

In [3]: df
Out[3]:
                                   compound  class_assignment
0  C[C@H]1c2nn(C)c(-c3cc(F)c(F)c(F)c3)c2CCN1C(=O)c1cccc(-c2cc[nH]n2)c1 [Example 270]               Yes
1  C[C@H]1c2nn(C)c(-c3cc(F)cc(C(F)(F)F)c3)c2CCN1C(=O)c1ccc2nccnc2c1 [Example 184]               Yes
2  COc1ccc(C(=O)N2CCc3c(nn(C)c3-c3cc(F)c(F)c(F)c3)[C@@H]2C)nc1 [Example 301]                No
3  COc1cc(Cl)cc(C(=O)N2CCc3c(nn(C)c3-c3ccccc3)C2)c1 [Example 16]               Yes
4  COc1cc(C(=O)N2CCc3c(nn(C)c3-c3cc(F)c(F)c(F)c3)[C@@H]2C)nn1C [Example 200]                No
5  Cn1nc2c(c1-c1ccccc1)CCN(C(=O)c1ncn(-c3ccccc3)n1)C2 [Example 23]                No
6  C[C@H]1c2nn(C)c(-c3cc(F)c(F)c(F)c3)c2CCN1C(=O)c1ccccc1-n1cnc(C(F)(F)F)n1 [Example 282]                No
